This section presents compounds with their documented viability values.
Settings: % Viability non-Wnt responsive cells; note: test concentration or dose not given here
Where a SMILES comes first, the peptide text is derived from it. The star is where a group is joined. Bn = c1ccc(C*)cc1
Reply with the number and its unit after it.

CC[C@H](C)[C@H](NC(=O)[C@H](CC(C)C)NC(=O)[C@H](Cc1ccccc1)NC(=O)[C@H](Cc1c[nH]c2ccccc12)NC(=O)[C@H](CCCCN)NC(=O)[C@H](CCCNC(=N)N)NC(=O)[C@H](CO)NC(=O)[C@@H](N)CCCCN)C(=O)N[C@@H](CO)C(=O)N[C@@H](Cc1ccccc1)C(=O)N[C@@H](Cc1c[nH]c2ccccc12)C(N)=O [compound 93] (H-KSRKWFLISFW-NH2)	94%
CC[C@H](C)[C@H](NC(=O)[C@H](CC(C)C)NC(=O)[C@H](Cc1ccccc1)NC(=O)[C@H](Cc1c[nH]c2ccccc12)NC(=O)[C@@H](NC(=O)[C@H](CCCNC(=N)N)NC(=O)[C@H](CO)NC(=O)[C@@H](N)CCSC)C(C)C)C(=O)N[C@@H](CO)C(=O)N[C@@H](Cc1ccccc1)C(=O)N[C@@H](Cc1c[nH]c2ccccc12)C(=O)NCC(=O)O [compound 64] (H-MSRVWFLISFWG-OH)	104%
CC[C@H](C)[C@H](NC(=O)[C@H](CC(C)C)NC(=O)[C@@H](NC(=O)C(C)(Cc1c[nH]c2ccccc12)NC(=O)[C@@H](N)CCSC)[C@@H](C)CC)C(=O)N[C@@H](CO)C(=O)N[C@@H](Cc1ccccc1)C(=O)N[C@@H](Cc1c[nH]c2ccccc12)C(=O)NCC(=O)O (some centres unmarked) [compound 134] (HELM PEPTIDE1{M.[CC(Cc1c[nH]c2ccccc12)(N[*:1])C(=O)[*:2]].I.L.I.S.F.W.G}$$$$V2.0)	97.9%
CC[C@H](C)[C@H](NC(=O)[C@H](Cc1c[nH]c2ccccc12)NC(=O)[C@@H](N)CCSC)C(=O)N[C@@H](CC(C)C)C(=O)N[C@H](C(=O)N[C@@H](CS)C(=O)NC(C)(Cc1ccccc1)C(=O)N[C@@H](Cc1c[nH]c2ccccc12)C(=O)NCC(=O)O)[C@@H](C)CC (some centres unmarked) [compound 121] (HELM PEPTIDE1{M.W.I.L.I.C.[CC(Cc1ccccc1)(N[*:1])C(=O)[*:2]].W.G}$$$$V2.0)	150%
CC[C@H](C)[C@H](NC(=O)[C@H](CC(C)C)NC(=O)[C@H](Cc1ccccc1)NC(=O)[C@@H](N)Cc1c[nH]c2ccccc12)C(=O)N[C@@H](CO)C(=O)N[C@@H](COCc1ccccc1)C(=O)N[C@@H](Cc1c[nH]c2ccccc12)C(=O)O [compound 101] (H-WFLISS(Bn)W-OH)	106%
CC[C@H](C)[C@H](NC(=O)[C@H](CC(C)C)NC(=O)[C@@H](NC(=O)[C@H](Cc1c[nH]c2ccccc12)NC(=O)[C@@H](N)CCSC)[C@@H](C)CC)C(=O)N[C@@H](COCc1ccccc1)C(=O)N[C@@H](Cc1ccccc1)C(=O)N[C@@H](Cc1c[nH]c2ccccc12)C(=O)NCC(=O)O [compound 146] (H-MWILIS(Bn)FWG-OH)	99.1%
CC[C@H](C)[C@H](NC(=O)[C@H](CC(C)C)NC(=O)[C@H](Cc1ccccc1)NC(=O)[C@H](Cc1c[nH]c2ccccc12)NC(=O)[C@H](CCSC)NC(=O)[C@H](CCCNC(=N)N)NC(=O)[C@H](CO)NC(=O)[C@@H](N)CCCNC(=N)N)C(=O)N[C@@H](CO)C(=O)N[C@@H](Cc1ccccc1)C(=O)N[C@@H](Cc1c[nH]c2ccccc12)C(N)=O [compound 84] (H-RSRMWFLISFW-NH2)	88.6%
CC[C@H](C)[C@H](NC(=O)[C@H](CC(C)C)NC(=O)[C@H](Cc1ccccc1)NC(=O)[C@H](Cc1c[nH]c2ccccc12)NC(=O)[C@@H](N)CCSC)C(=O)N[C@@H](CO)C(=O)N[C@@H](Cc1ccccc1)C(=O)N[C@@H](Cc1c[nH]c2ccccc12)C(=O)O [compound 112] (H-MWFLISFW-OH)	103%

Ask: For the compound CC[C@H](C)[C@H](NC(=O)[C@H](CC(C)C)NC(=O)[C@H](Cc1ccccc1)NC(=O)[C@H](Cc1c[nH]c2ccccc12)NC(=O)[C@H](CCSC)NC(=O)[C@H](CCCNC(=N)N)NC(=O)[C@H](CO)NC(=O)[C@@H](N)CCSC)C(=O)N[C@@H](CO)C(=O)N[C@@H](Cc1ccccc1)C(=O)N[C@@H](Cc1c[nH]c2ccccc12)C(=O)N[C@@H](CCCNC(=N)N)C(=O)NCC(=O)O [compound 58] (H-MSRMWFLISFWRG-OH) , give its reported viability.
Result: 106%

Ask: Give a short answer stating reported viability for CC[C@H](C)[C@H](NC(=O)[C@H](CC(C)C)NC(=O)[C@H](Cc1ccccc1)NC(=O)[C@H](Cc1c[nH]c2ccccc12)NC(=O)[C@H](CCSC)NC(=O)[C@H](CCCNC(=N)N)NC(=O)[C@H](CO)NC(=O)[C@@H](N)CCSC)C(=O)N[C@@H](CS)C(=O)N[C@@H](Cc1ccccc1)C(=O)N[C@@H](Cc1c[nH]c2ccccc12)C(=O)NCC(=O)O [compound 46] (H-MSRMWFLICFWG-OH) .
Result: 101%

Ask: Tell me its viability given CC[C@H](C)[C@@H]1NC(=O)[C@H](CC(C)C)NC(=O)[C@H](CC(C)C)NC(=O)[C@H](Cc2c[nH]c3ccccc23)NC(=O)[C@@H](N)CCCCNC(=O)C[C@@H](C(=O)O)NC(=O)[C@H](Cc2c[nH]c3ccccc23)NC(=O)[C@H](C)NC(=O)[C@H](CO)NC1=O [compound 206] (HELM PEPTIDE1{K.W.L.L.I.S.A.W.D}$PEPTIDE1,PEPTIDE1,1:R3-9:R3$$$V2.0) as the entry.
Result: 98.7%
